Read-out: E-selectin (Homo sapiens)
measurement_protocol: BSK_LPS_Eselectin: BioMAP Diversity Plus: LPS Assay for Eselectin Biomarker Activity (AID 2283077)
stated_conditions: primary human HUVEC with PBMC; actives raise or lower the signal
Activity calls are given as the source filed them. Rule for the calls: active = hit-call score of the fitted dose curve at least 0.9, where 1 is the maximum; inactive = score below 0.9.
Classes used: active, inactive

compound	classification
COc1ccc(-n2nc(C(F)F)cc2-c2ccc(S(C)=O)cc2)cc1 (stereo unspecified)	inactive
CC1(C)C(=O)N(Br)C(=O)N1Br	inactive
CCOC(=O)CC(CC(=O)OCC)(OC(C)=O)C(=O)OCC	inactive
CC[C@H]1CC[C@H](NCc2cc3c(cc2OC)[C@H]2C[C@H]2C(=O)N3C)[C@H](c2ccccc2)N1	inactive
CCC(C)(C)C(=O)O[C@H]1C[C@@H](C)C=C2C=C[C@H](C)[C@H](CC[C@@H]3C[C@@H](O)CC(=O)O3)[C@H]21	active
CCOCCO	inactive
O=c1[nH]c2ccc(S(=O)CCN3CCC(Cc4ccc(F)cc4)CC3)cc2o1 (stereo unspecified)	inactive
Cn1c(=O)c2c(ncn2C)n(C)c1=O	inactive
CC(=O)c1ccc2c(c1)[C@H](NC(=O)c1ccc(F)cc1)[C@@H](O)C(C)(C)O2	inactive
CC/C(=C\C(=N/O)C(N)=O)C(C)[N+](=O)[O-] (stereo unspecified)	inactive
O=C1CCCCCN1	inactive

---

tested_on: Estrogen receptor (Homo sapiens) (UniProt P03372)
Sequence (P03372 whole entry, looked up): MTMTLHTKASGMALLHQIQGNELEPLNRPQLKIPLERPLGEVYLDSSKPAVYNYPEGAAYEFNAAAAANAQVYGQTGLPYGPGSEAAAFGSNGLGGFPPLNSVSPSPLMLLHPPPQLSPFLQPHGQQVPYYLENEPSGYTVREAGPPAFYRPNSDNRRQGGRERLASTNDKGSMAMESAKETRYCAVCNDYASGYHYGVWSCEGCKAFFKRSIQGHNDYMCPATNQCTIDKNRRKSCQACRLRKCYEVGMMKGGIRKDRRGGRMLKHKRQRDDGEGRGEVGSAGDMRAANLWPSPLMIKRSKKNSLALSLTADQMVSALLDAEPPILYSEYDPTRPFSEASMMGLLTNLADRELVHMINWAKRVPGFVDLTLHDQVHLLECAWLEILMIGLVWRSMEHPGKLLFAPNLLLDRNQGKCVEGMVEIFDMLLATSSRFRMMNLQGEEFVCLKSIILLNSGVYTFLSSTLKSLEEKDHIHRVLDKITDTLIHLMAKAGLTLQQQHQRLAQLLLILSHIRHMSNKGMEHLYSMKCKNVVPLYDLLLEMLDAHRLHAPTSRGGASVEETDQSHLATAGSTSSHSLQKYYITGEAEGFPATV
measurement_protocol: ATG_ERa_TRANS: Attagene TRANS-FACTORIAL HepG2 Assay for human Estrogen Receptor alpha (ERa) (AID 2282970)
stated_conditions: HepG2 Attagene TRANS ERa GAL4 reporter, mRNA
Records with an inconclusive call do not appear. Calls of active or inactive are those of the source. The calls were made as follows: active = hit-call score of the fitted dose curve at least 0.9, where 1 is the maximum; inconclusive = response in the unintended direction; inactive = score below 0.9.

compound	AC50
COC(=O)c1c(Cl)c(Cl)c(C(=O)OC)c(Cl)c1Cl	inactive
CC[C@H](C)C(=O)O[C@H]1C[C@@H](C)C=C2C=C[C@H](C)[C@H](CC[C@@H]3C[C@@H](O)CC(=O)O3)[C@H]21	inactive
Cc1ccc(S(=O)(=O)O)cc1C	inactive
C=CCCCCCCCCC(=O)O	inactive
O=c1n(CC2CO2)c(=O)n(CC2CO2)c(=O)n1CC1CO1 (stereo unspecified)	inactive
O=C(NS(=O)(=O)/C=C/c1ccccc1)c1ccc(F)cc1Cl	inactive
C=CC(=C)CCC=C(C)C	inactive
O=P(OC(CCl)CCl)(OC(CCl)CCl)OC(CCl)CCl	inactive
CCC(C)(C)C(=O)O[C@H]1C[C@@H](C)C=C2C=C[C@H](C)[C@H](CC[C@@H]3C[C@@H](O)CC(=O)O3)[C@H]21	inactive
Cn1cnc([N+](=O)[O-])c1Sc1ncnc2nc[nH]c12	46.1 µM (active)
Nc1ccc(Nc2ccccc2)cc1	24.5 µM (active)

---

Test system: DIO3 (gene 1735)
measurement_protocol: CCTE_GLTED_hDIO3: CCTE's human Deiodinase 3 (DIO3) Inhibition Assay, Great Lakes Toxicology and Ecology Division (GLTED) Lab (AID 2284055);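 note: potency is for inhibition seen as loss of released iodide signal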
Active and inactive are the calls of the source. How the source made its calls: active means hit-call score of the fitted dose curve at least 0.9, where 1 is the maximum; inconclusive means response in the unintended direction; inactive means score below 0.9.
The following compounds are shown together with reported AC50 values.

compound	tested_on	AC50
Clc1nc(Cl)c(Cl)c(Cl)c1Cl	DIO3 (gene 1735)	0.92 µM (active)
CCOC(=O)c1ccc(C2CCC(NC[C@H](O)COc3ccc(O)c(NS(C)(=O)=O)c3)CC2)cc1 (some centres undefined)	DIO3 (gene 1735)	126 µM (active)
CCOc1cccc(-n2cc(C(=O)N3CCN(c4cc(C(=O)O)c5ccccc5c4)CC3)nc2-c2ccc(C)cc2)c1	DIO3 (gene 1735)	140 µM (active)
O=C(OC[C@H]1O[C@@H](OC(=O)c2cc(O)c(O)c(OC(=O)c3cc(O)c(O)c(O)c3)c2)[C@H](OC(=O)c2cc(O)c(O)c(OC(=O)c3cc(O)c(O)c(O)c3)c2)[C@@H](OC(=O)c2cc(O)c(O)c(OC(=O)c3cc(O)c(O)c(O)c3)c2)[C@@H]1OC(=O)c1cc(O)c(O)c(OC(=O)c2cc(O)c(O)c(O)c2)c1)c1cc(O)c(O)c(OC(=O)c2cc(O)c(O)c(O)c2)c1	DIO3 (gene 1735)	14.8 µM (active)
